System Name: T1, Recombinant EBOV GP without transmembrane domain (Zaire ebolavirus, strain of GP not …, UniProt Q05320)
T1 construct: also called recombinant GP; EBOV rGPdTM; source: bought: IBT Bioservices
T1 sequence (Q05320 whole entry, looked up, the tested form may be a part): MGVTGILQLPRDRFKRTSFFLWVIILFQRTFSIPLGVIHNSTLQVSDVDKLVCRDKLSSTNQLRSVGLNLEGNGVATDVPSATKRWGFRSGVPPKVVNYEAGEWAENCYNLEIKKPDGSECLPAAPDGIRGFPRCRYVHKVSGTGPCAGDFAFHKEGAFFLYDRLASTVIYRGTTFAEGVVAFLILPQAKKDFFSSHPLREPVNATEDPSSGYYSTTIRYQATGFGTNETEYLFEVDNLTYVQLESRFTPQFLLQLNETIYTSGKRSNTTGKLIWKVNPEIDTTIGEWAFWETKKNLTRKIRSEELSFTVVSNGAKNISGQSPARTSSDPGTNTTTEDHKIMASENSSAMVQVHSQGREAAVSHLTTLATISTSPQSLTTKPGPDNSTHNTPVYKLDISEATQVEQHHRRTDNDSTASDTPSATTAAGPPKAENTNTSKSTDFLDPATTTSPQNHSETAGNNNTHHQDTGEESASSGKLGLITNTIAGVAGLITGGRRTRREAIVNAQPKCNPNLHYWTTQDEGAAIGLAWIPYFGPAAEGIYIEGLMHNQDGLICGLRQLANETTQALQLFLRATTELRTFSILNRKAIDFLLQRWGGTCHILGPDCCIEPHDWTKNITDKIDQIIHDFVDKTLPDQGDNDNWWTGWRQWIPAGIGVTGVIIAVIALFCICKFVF
Experimental Protocol: SPR
Setup Conditions: both partners purified
Recorded Metric: kon (M⁻¹ s⁻¹)

Binder	Unit String	Measurement
EBOV-GP-A8-neg+ (VHH) VHH: EVQLVESGGGLVQAGDSLQLSCAAPGRPVRTYTMGWFRQAPGKEREFVCANNWRGTRYAGSVRGRFSCSRDNSKNTVYLQMNSLKPEDTAVYYCACAVTADLLLSGNYFRGDDYDYWGQGTQVTVSS	M⁻¹ s⁻¹	61000
EBOV-GP-G6-neg+ (VHH, also called Bt-sdAb-neg+) VHH: DVQLVESGGGLVQAGGSLRISCAASGGALSDYNMGWFRQAPGKEREFVCVVTWSGGSTRYADSVNGRFTCSRDNAKNTVYLQMNSLKPEDTAVYYCAAAPLTPFQSLGDMKAYNYWGQGTQVTVSS	M⁻¹ s⁻¹	3500
EBOV-GP-A8-fneg+ (VHH, also called Bt-sdAb-neg+) VHH: EVQLVESGGGLVQAGDSLQLSCAAPGRPVRTYTMGWFRQAPGKEREFVCANNWRGTRYAGSVRGRFSCSRDNSKNTVYLQMNSLKPEDTAVYYCASAVTADLLLSGNYFRGDDYDYWGQGTQVTVSS	M⁻¹ s⁻¹	130000
EBOV-GP-H7-neg+ (VHH, also called EBOV-H7-neg+; Bt-sdAb-neg+) VHH: DVQLVESGGGLVQAGGSLRLSCAASSGTFSSYTMGWFRQAPGKERELVCRLSQSLTTLYADSVKGRFTCSRDNAENTVYLQMNSLKPEDTGVYYCAAHPGTYGSAWLISPHDYAYWGQGTQVTVSS	M⁻¹ s⁻¹	35000
